experiment: Cytotoxicity against human GES1 cells assessed as inhibition of cell growth incubated for 72 hrs by MTT assay; type: toxicity, cell-based

MOLECULAR_STRING	IC50 at 72 h
Cc1ccc(NC(=O)Cn2cc(-c3ccc4c(NC(=O)c5ccc(NC(=O)CCCCCCCCCC(=O)N[C@H](C(=O)N6C[C@H](O)C[C@H]6C(=O)NCc6ccc(-c7scnc7C)cc6)C(C)(C)C)cc5)n[nH]c4c3)cn2)cc1C(F)(F)F	12 µM
Cc1ccc(NC(=O)Cn2cc(-c3ccc4c(NC(=O)c5ccc(NC(=O)CCCCCC(=O)N[C@H](C(=O)N6C[C@H](O)C[C@H]6C(=O)NCc6ccc(-c7scnc7C)cc6)C(C)(C)C)cc5)n[nH]c4c3)cn2)cc1C(F)(F)F	31.3 µM
Cc1ccc(NC(=O)Cn2cc(-c3ccc4c(NC(=O)c5ccc(N6CCN(C(=O)NCCCCCCCCCCC(=O)N[C@H](C(=O)N7C[C@H](O)C[C@H]7C(=O)NCc7ccc(-c8scnc8C)cc7)C(C)(C)C)CC6)cc5)n[nH]c4c3)cn2)cc1C(F)(F)F	> 100 µM
Cc1ccc(NC(=O)Cn2cc(-c3ccc4c(NC(=O)c5ccc(NC(=O)CCCCC(=O)N6CCN(CCCCCC(=O)N[C@H](C(=O)N7C[C@H](O)C[C@H]7C(=O)NCc7ccc(-c8scnc8C)cc7)C(C)(C)C)CC6)cc5)n[nH]c4c3)cn2)cc1C(F)(F)F	26.8 µM
Cc1ccc(NC(=O)Cn2cc(-c3ccc4c(NC(=O)c5ccc(N)cc5)nn(C(=O)CCCCCCCCC(=O)N[C@H](C(=O)N5C[C@H](O)C[C@H]5C(=O)NCc5ccc(-c6scnc6C)cc5)C(C)(C)C)c4c3)cn2)cc1C(F)(F)F	3.36 µM
Cc1ccc(NC(=O)Cn2cc(-c3ccc4c(NC(=O)c5ccc(NC(=O)CCCCCCCC(=O)N[C@H](C(=O)N6C[C@H](O)C[C@H]6C(=O)NCc6ccc(-c7scnc7C)cc6)C(C)(C)C)cc5)n[nH]c4c3)cn2)cc1C(F)(F)F	10.9 µM
Cc1ccc(NC(=O)Cn2cc(-c3ccc4c(NC(=O)c5ccc(NC(=O)CCCCCCCCC(=O)N[C@H](C(=O)N6C[C@@H](O)C[C@H]6C(=O)NCc6ccc(-c7scnc7C)cc6)C(C)(C)C)cc5)n[nH]c4c3)cn2)cc1C(F)(F)F	5.13 µM
Cc1ccc(NC(=O)Cn2cc(-c3ccc4c(NC(=O)c5ccc(N6CCN(C(=O)NCCCCCCCCC(=O)N[C@H](C(=O)N7C[C@H](O)C[C@H]7C(=O)NCc7ccc(-c8scnc8C)cc7)C(C)(C)C)CC6)cc5)n[nH]c4c3)cn2)cc1C(F)(F)F	> 100 µM
Cc1ccc(NC(=O)Cn2cc(-c3ccc4c(NC(=O)c5ccc(NC(=O)CCCCCCC(=O)N[C@H](C(=O)N6C[C@H](O)C[C@H]6C(=O)NCc6ccc(-c7scnc7C)cc6)C(C)(C)C)cc5)n[nH]c4c3)cn2)cc1C(F)(F)F	14.3 µM
CNC(=O)c1cc(Oc2ccc(NC(=O)Nc3ccc(Cl)c(C(F)(F)F)c3)cc2)ccn1	9.47 µM
Cc1ccc(NC(=O)Cn2cc(-c3ccc4c(NC(=O)c5ccc(N6CCNCC6)cc5)n[nH]c4c3)cn2)cc1C(F)(F)F	1.32 µM
Cc1ccc(NC(=O)Cn2cc(-c3ccc4c(NC(=O)c5ccc(N6CCN(CCCCCC(=O)N[C@H](C(=O)N7C[C@H](O)C[C@H]7C(=O)NCc7ccc(-c8scnc8C)cc7)C(C)(C)C)CC6)cc5)n[nH]c4c3)cn2)cc1C(F)(F)F	> 100 µM
Cc1ccc(NC(=O)Cn2cc(-c3ccc4c(NC(=O)c5ccc(N6CCN(CCCCCCCC(=O)N[C@H](C(=O)N7C[C@H](O)C[C@H]7C(=O)NCc7ccc(-c8scnc8C)cc7)C(C)(C)C)CC6)cc5)n[nH]c4c3)cn2)cc1C(F)(F)F	> 100 µM
Cc1ccc(NC(=O)Cn2cc(-c3ccc4c(NC(=O)c5ccc(NC(=O)CCCCCCCCCCC(=O)N[C@H](C(=O)N6C[C@H](O)C[C@H]6C(=O)NCc6ccc(-c7scnc7C)cc6)C(C)(C)C)cc5)n[nH]c4c3)cn2)cc1C(F)(F)F	31.8 µM
Cc1ccc(NC(=O)Cn2cc(-c3ccc4c(NC(=O)c5ccc(N)cc5)n[nH]c4c3)cn2)cc1C(F)(F)F	2.35 µM
Cc1ccc(NC(=O)Cn2cc(-c3ccc4c(NC(=O)c5ccc(NC(=O)CCCCC(=O)N6CCN(CCCCC(=O)N[C@H](C(=O)N7C[C@H](O)C[C@H]7C(=O)NCc7ccc(-c8scnc8C)cc7)C(C)(C)C)CC6)cc5)n[nH]c4c3)cn2)cc1C(F)(F)F	23.1 µM
Cc1ccc(NC(=O)Cn2cc(-c3ccc4c(NC(=O)c5ccc(N6CCN(C(=O)NCCCCC(=O)N[C@H](C(=O)N7C[C@H](O)C[C@H]7C(=O)NCc7ccc(-c8scnc8C)cc7)C(C)(C)C)CC6)cc5)n[nH]c4c3)cn2)cc1C(F)(F)F	> 100 µM
Cc1ccc(NC(=O)Cn2cc(-c3ccc4c(NC(=O)c5ccc(NC(=O)CCCCC(=O)N6CCN(CCCCCCC(=O)N[C@H](C(=O)N7C[C@H](O)C[C@H]7C(=O)NCc7ccc(-c8scnc8C)cc7)C(C)(C)C)CC6)cc5)n[nH]c4c3)cn2)cc1C(F)(F)F	51.4 µM

###

Listed here: items and their measured pEC50.
target: von Hippel-Lindau disease tumor suppressor/Vascular endothelial growth factor receptor 2 (Homo sapiens, UniProt P35968+P40337); assay: PROTAC activity at VHL/VEGFR2 in human HGC-27 cells assessed as reduction in VEGFR2 protein level incubated for 24 hrs by Western blot analysis; type: cell-based
Sequence (P35968 whole entry): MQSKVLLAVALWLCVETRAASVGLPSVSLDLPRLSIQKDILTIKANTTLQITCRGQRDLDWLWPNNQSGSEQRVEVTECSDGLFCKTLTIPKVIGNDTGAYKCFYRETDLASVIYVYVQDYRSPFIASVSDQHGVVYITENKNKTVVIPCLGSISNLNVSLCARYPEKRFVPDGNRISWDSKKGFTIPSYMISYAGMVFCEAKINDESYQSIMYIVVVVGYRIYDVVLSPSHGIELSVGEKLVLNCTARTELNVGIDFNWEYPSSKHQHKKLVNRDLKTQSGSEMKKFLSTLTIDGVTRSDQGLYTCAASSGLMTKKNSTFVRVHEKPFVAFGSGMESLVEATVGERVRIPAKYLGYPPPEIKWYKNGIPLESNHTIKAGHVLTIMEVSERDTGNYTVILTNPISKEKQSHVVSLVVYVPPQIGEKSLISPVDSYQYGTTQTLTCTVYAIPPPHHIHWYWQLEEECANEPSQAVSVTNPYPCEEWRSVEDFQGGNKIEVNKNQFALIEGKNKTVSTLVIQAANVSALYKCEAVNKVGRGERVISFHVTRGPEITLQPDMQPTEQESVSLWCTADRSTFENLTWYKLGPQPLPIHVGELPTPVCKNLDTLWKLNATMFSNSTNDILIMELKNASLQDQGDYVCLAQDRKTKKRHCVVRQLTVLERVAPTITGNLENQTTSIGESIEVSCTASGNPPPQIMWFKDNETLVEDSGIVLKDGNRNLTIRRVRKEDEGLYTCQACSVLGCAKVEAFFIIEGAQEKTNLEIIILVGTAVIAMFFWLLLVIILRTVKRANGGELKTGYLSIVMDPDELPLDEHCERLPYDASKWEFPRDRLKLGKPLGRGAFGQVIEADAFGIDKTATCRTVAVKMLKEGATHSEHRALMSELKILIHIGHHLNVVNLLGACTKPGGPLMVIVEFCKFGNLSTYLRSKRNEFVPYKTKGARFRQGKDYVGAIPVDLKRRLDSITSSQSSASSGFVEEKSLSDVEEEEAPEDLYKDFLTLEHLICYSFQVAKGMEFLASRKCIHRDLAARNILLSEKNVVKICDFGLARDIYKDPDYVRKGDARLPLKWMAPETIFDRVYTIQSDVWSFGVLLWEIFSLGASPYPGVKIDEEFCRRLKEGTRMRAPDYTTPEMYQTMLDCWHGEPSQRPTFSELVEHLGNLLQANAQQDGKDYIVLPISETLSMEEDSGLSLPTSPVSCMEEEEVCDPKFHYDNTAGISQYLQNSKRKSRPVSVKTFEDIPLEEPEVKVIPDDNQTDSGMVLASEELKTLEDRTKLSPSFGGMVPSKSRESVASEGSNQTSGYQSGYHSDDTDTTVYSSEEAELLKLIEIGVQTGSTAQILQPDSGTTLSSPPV
Sequence (P40337 whole entry): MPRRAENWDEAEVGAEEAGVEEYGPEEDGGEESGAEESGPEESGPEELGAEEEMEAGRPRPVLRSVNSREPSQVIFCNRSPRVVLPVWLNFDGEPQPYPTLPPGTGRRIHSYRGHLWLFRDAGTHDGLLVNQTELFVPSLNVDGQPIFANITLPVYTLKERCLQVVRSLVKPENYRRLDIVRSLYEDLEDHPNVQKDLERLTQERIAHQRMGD
pEC50: −log10 of the molar value.
MEASURE: pEC50

MOLECULAR_STRING	COMPARISON_SIGN	NUMERIC_READOUT
Cc1ccc(NC(=O)Cn2cc(-c3ccc4c(NC(=O)c5ccc(N6CCN(C(=O)NCCCCC(=O)N[C@H](C(=O)N7C[C@H](O)C[C@H]7C(=O)NCc7ccc(-c8scnc8C)cc7)C(C)(C)C)CC6)cc5)n[nH]c4c3)cn2)cc1C(F)(F)F	<	5.48
Cc1ccc(NC(=O)Cn2cc(-c3ccc4c(NC(=O)c5ccc(NC(=O)CCCCCCCCCCC(=O)N[C@H](C(=O)N6C[C@H](O)C[C@H]6C(=O)NCc6ccc(-c7scnc7C)cc6)C(C)(C)C)cc5)n[nH]c4c3)cn2)cc1C(F)(F)F	=	6.05

###

biological target: Vascular endothelial growth factor receptor 2 (Homo sapiens)
Sequence (P35968 whole entry): as the sequence (P35968 whole entry) above

MOLECULAR_STRING	IC50
Cc1ccc(NC(=O)Cn2cc(-c3ccc4c(NC(=O)c5ccc(N)cc5)n[nH]c4c3)cn2)cc1C(F)(F)F	2.7 nM

###

molecular target: von Hippel-Lindau disease tumor suppressor/Vascular endothelial growth factor receptor 2 (Homo sapiens, UniProt P35968+P40337); experiment: PROTAC activity at VHL/VEGFR2 in human HGC-27 cells assessed as reduction in VEGFR2 protein level incubated for 24 hrs by Western blot analysis; format: cell-based
MEASURE: EC50

MOLECULAR_STRING	RESULT
Cc1ccc(NC(=O)Cn2cc(-c3ccc4c(NC(=O)c5ccc(N)cc5)nn(C(=O)CCCCCCCCC(=O)N[C@H](C(=O)N5C[C@H](O)C[C@H]5C(=O)NCc5ccc(-c6scnc6C)cc5)C(C)(C)C)c4c3)cn2)cc1C(F)(F)F	> 3330 nM
Cc1ccc(NC(=O)Cn2cc(-c3ccc4c(NC(=O)c5ccc(NC(=O)CCCCCCCCC(=O)N[C@H](C(=O)N6C[C@H](O)C[C@H]6C(=O)NCc6ccc(-c7scnc7C)cc6)C(C)(C)C)cc5)n[nH]c4c3)cn2)cc1C(F)(F)F	84 nM
Cc1ccc(NC(=O)Cn2cc(-c3ccc4c(NC(=O)c5ccc(NC(=O)CCCCCCCC(=O)N[C@H](C(=O)N6C[C@H](O)C[C@H]6C(=O)NCc6ccc(-c7scnc7C)cc6)C(C)(C)C)cc5)n[nH]c4c3)cn2)cc1C(F)(F)F	> 3330 nM

###

experiment: Cytotoxicity against HUVEC cells assessed as inhibition of cell growth incubated for 72 hrs by MTT assay; format: toxicity, cell-based; settings: human

MOLECULAR_STRING	IC50 at 72 h
Cc1ccc(NC(=O)Cn2cc(-c3ccc4c(NC(=O)c5ccc(NC(=O)CCCCCCCC(=O)N[C@H](C(=O)N6C[C@H](O)C[C@H]6C(=O)NCc6ccc(-c7scnc7C)cc6)C(C)(C)C)cc5)n[nH]c4c3)cn2)cc1C(F)(F)F	> 50 µM
Cc1ccc(NC(=O)Cn2cc(-c3ccc4c(NC(=O)c5ccc(N6CCN(CCCCC(=O)N[C@H](C(=O)N7C[C@H](O)C[C@H]7C(=O)NCc7ccc(-c8scnc8C)cc7)C(C)(C)C)CC6)cc5)n[nH]c4c3)cn2)cc1C(F)(F)F	> 50 µM
Cc1ccc(NC(=O)Cn2cc(-c3ccc4c(NC(=O)c5ccc(N6CCN(C(=O)NCCCCC(=O)N[C@H](C(=O)N7C[C@H](O)C[C@H]7C(=O)NCc7ccc(-c8scnc8C)cc7)C(C)(C)C)CC6)cc5)n[nH]c4c3)cn2)cc1C(F)(F)F	> 100 µM
